conditions: in n-propanol, 298.15 K
MEASURED_ATTRIBUTE: solubility (mole fraction)
A bare number is all that is needed in reply.

Data request: Form field: reported solubility (mole fraction) of CC(=O)Nc1ccc(C(=O)O)cc1
Data returned: 0.007

---

details: in ethanol, 293.15 K
MEASURED_ATTRIBUTE: solubility (mole fraction)
// keep it numeric: no unit symbol after the value

Data request: Give the measured solubility (mole fraction) of CC(=O)Nc1ccc(C(=O)O)cc1 .
Data returned: 0.0075

---

details: in isobutanol, 308.15 K
MEASURED_ATTRIBUTE: solubility (mole fraction)
Form field (numeric): enter value without unit.

Data request: Any idea what its solubility (mole fraction) is? The molecule is CC(=O)Nc1ccc(C(=O)O)cc1
Data returned: 0.00822

---

conditions: in acetone, 298.15 K
MEASURED_ATTRIBUTE: solubility (mole fraction)
// no unit string in output, number only

Data request: # lookup: solubility (mole fraction) of CC(=O)Nc1ccc(C(=O)O)cc1
Data returned: 0.00454

---

conditions: in isopropanol, 323.15 K
MEASURED_ATTRIBUTE: solubility (mole fraction)
Lab note: jot the number down without any unit.

Data request: # input compound: CC(=O)Nc1ccc(C(=O)O)cc1 ; wanted: its solubility (mole fraction)
Data returned: 0.0137

---

conditions: in n-pentanol, 288.15 K
MEASURED_ATTRIBUTE: solubility (mole fraction)
Just the number, please, no unit attached.

Data request: # query: solubility (mole fraction) of entry CC(=O)Nc1ccc(C(=O)O)cc1
Data returned: 0.00554

---

conditions: in sec-butanol, 283.15 K
MEASURED_ATTRIBUTE: solubility (mole fraction)

Data request: Can you share its solubility (mole fraction)? I mean this molecule: CC(=O)Nc1ccc(C(=O)O)cc1
Data returned: 0.00515

---

details: in n-pentanol, 298.15 K
MEASURED_ATTRIBUTE: solubility (mole fraction)

Data request: Given the compound CC(=O)Nc1ccc(C(=O)O)cc1 , what is its reported solubility (mole fraction)?
Data returned: 0.00659

---

settings: in isobutanol, 303.15 K
MEASURED_ATTRIBUTE: solubility (mole fraction)
Answer with a number only.

Data request: Bench note: what solubility (mole fraction) did CC(=O)Nc1ccc(C(=O)O)cc1 show?
Data returned: 0.00696

---

conditions: in 1,4-dioxane, 323.15 K
MEASURED_ATTRIBUTE: solubility (mole fraction)
Give the figure only, with no unit attached.

Data request: Which solubility (mole fraction) is reported for this compound? CC(=O)Nc1ccc(C(=O)O)cc1
Data returned: 0.00639

---

settings: in methanol, 323.15 K
MEASURED_ATTRIBUTE: solubility (mole fraction)
API doc: respond with a numeric literal and nothing else, no unit.

Data request: # get_value(readout='solubility (mole fraction)', item= CC(=O)Nc1ccc(C(=O)O)cc1 )
Data returned: 0.0141

---

conditions: in methanol, 303.15 K
MEASURED_ATTRIBUTE: solubility (mole fraction)
Number only, please.

Data request: I'd like to know its solubility (mole fraction). The molecule in question is CC(=O)Nc1ccc(C(=O)O)cc1
Data returned: 0.00941

---

details: in isobutanol, 313.15 K
MEASURED_ATTRIBUTE: solubility (mole fraction)
Just the number, please, no unit attached.

Data request: Consider the molecule shown here: CC(=O)Nc1ccc(C(=O)O)cc1 What is its recorded solubility (mole fraction)?
Data returned: 0.00912

---

settings: in acetic acid, 318.15 K
MEASURED_ATTRIBUTE: solubility (mole fraction)

Data request: Quick one: solubility (mole fraction) of CC(=O)Nc1ccc(C(=O)O)cc1 ?
Data returned: 0.00782

---

settings: in n-propanol, 288.15 K
MEASURED_ATTRIBUTE: solubility (mole fraction)
Please reply with the number alone, leaving off any unit.

Data request: Value lookup for solubility (mole fraction); key = CC(=O)Nc1ccc(C(=O)O)cc1
Data returned: 0.00548

---

conditions: in ethanol, 303.15 K
MEASURED_ATTRIBUTE: solubility (mole fraction)
Lab note: jot down the number only; don't add units.

Data request: Look up solubility (mole fraction): CC(=O)Nc1ccc(C(=O)O)cc1
Data returned: 0.00921

---

settings: in 1,4-dioxane, 293.15 K
MEASURED_ATTRIBUTE: solubility (mole fraction)
Answer with a bare number; do not write a unit.

Data request: Item CC(=O)Nc1ccc(C(=O)O)cc1 has what recorded solubility (mole fraction)?
Data returned: 0.00326

---

details: in isopropanol, 308.15 K
MEASURED_ATTRIBUTE: solubility (mole fraction)
Number only, please.

Data request: Look up solubility (mole fraction): CC(=O)Nc1ccc(C(=O)O)cc1
Data returned: 0.00986

---

details: in acetonitrile, 303.15 K
MEASURED_ATTRIBUTE: solubility (mole fraction)
Lab note: jot down the number only; don't add units.

Data request: solubility (mole fraction) for CC(=O)Nc1ccc(C(=O)O)cc1 ?
Data returned: 0.000653

---

conditions: in isopropanol, 313.15 K
MEASURED_ATTRIBUTE: solubility (mole fraction)
API note: the answer field is a bare number with no unit suffix.

Data request: # solubility (mole fraction) lookup, item CC(=O)Nc1ccc(C(=O)O)cc1
Data returned: 0.011

---

conditions: in sec-butanol, 293.15 K
MEASURED_ATTRIBUTE: solubility (mole fraction)

Data request: Reported solubility (mole fraction) for CC(=O)Nc1ccc(C(=O)O)cc1 : what is it?
Data returned: 0.00666

---

conditions: in acetone, 323.15 K
MEASURED_ATTRIBUTE: solubility (mole fraction)

Data request: Quick one: solubility (mole fraction) of CC(=O)Nc1ccc(C(=O)O)cc1 ?
Data returned: 0.00913

---

details: in n-butanol, 313.15 K
MEASURED_ATTRIBUTE: solubility (mole fraction)
Just the number.

Data request: What solubility (mole fraction) value was documented for this molecule, CC(=O)Nc1ccc(C(=O)O)cc1 ?
Data returned: 0.0108

---

details: in sec-butanol, 323.15 K
MEASURED_ATTRIBUTE: solubility (mole fraction)
Give a plain numeric answer without units written out.

Data request: What measured solubility (mole fraction) goes with CC(=O)Nc1ccc(C(=O)O)cc1 ?
Data returned: 0.015

---

settings: in isopropanol, 283.15 K
MEASURED_ATTRIBUTE: solubility (mole fraction)
API doc: respond with a numeric literal and nothing else, no unit.

Data request: Return reported solubility (mole fraction); argument: CC(=O)Nc1ccc(C(=O)O)cc1
Data returned: 0.00546

---

conditions: in isobutanol, 283.15 K
MEASURED_ATTRIBUTE: solubility (mole fraction)

Data request: Entry CC(=O)Nc1ccc(C(=O)O)cc1 : reported solubility (mole fraction) = ?
Data returned: 0.00351

---

settings: in acetic acid, 293.15 K
MEASURED_ATTRIBUTE: solubility (mole fraction)
Reply with the value as a number alone.

Data request: Give its solubility (mole fraction) value. Item: CC(=O)Nc1ccc(C(=O)O)cc1
Data returned: 0.00404

---

settings: in acetone, 288.15 K
MEASURED_ATTRIBUTE: solubility (mole fraction)
A bare number is all that is needed in reply.

Data request: Which measured solubility (mole fraction) value corresponds to CC(=O)Nc1ccc(C(=O)O)cc1 ?
Data returned: 0.00338

---

conditions: in ethanol, 308.15 K
MEASURED_ATTRIBUTE: solubility (mole fraction)
Number only, no unit.

Data request: // returns reported solubility (mole fraction) for input CC(=O)Nc1ccc(C(=O)O)cc1
Data returned: 0.0101

---

conditions: in acetic acid, 328.15 K
MEASURED_ATTRIBUTE: solubility (mole fraction)
Give the figure only, with no unit attached.

Data request: Recorded solubility (mole fraction) for CC(=O)Nc1ccc(C(=O)O)cc1 , please?
Data returned: 0.00963

---

settings: in sec-butanol, 303.15 K
MEASURED_ATTRIBUTE: solubility (mole fraction)

Data request: Request the reported solubility (mole fraction) associated with CC(=O)Nc1ccc(C(=O)O)cc1
Data returned: 0.00936

---

conditions: in ethanol, 313.15 K
MEASURED_ATTRIBUTE: solubility (mole fraction)

Data request: Field request: solubility (mole fraction) | item: CC(=O)Nc1ccc(C(=O)O)cc1
Data returned: 0.0114

---

details: in acetonitrile, 318.15 K
MEASURED_ATTRIBUTE: solubility (mole fraction)

Data request: Report solubility (mole fraction) for CC(=O)Nc1ccc(C(=O)O)cc1 please.
Data returned: 0.00107

---

details: in methanol, 283.15 K
MEASURED_ATTRIBUTE: solubility (mole fraction)

Data request: Can you share its solubility (mole fraction)? I mean this compound: CC(=O)Nc1ccc(C(=O)O)cc1
Data returned: 0.006

---

settings: in isobutanol, 298.15 K
MEASURED_ATTRIBUTE: solubility (mole fraction)
Please state the value as a number alone, without comment.

Data request: What value of solubility (mole fraction) has been reported for the following molecule? CC(=O)Nc1ccc(C(=O)O)cc1
Data returned: 0.00601
